System: HEK-293T
assay_details: Incucyte cell viability with HEK293T; note: unitless GR value; below 1 slowed growth and below 0 cell loss
Type: toxicity, cell-based
cond: human, 6 h, 10 µM, compound concentration 10 uM, replicate number 2
measured_property: Growth Rate
Please reply with the value in numeric form only.

Take a look at these entries with their results.
- compound: "CC[C@H]1[C@@H](O)[C@@H]2[C@H](CC[C@]3(C)[C@@H]([C@H](C)CCC(=O)O)CC[C@@H]23)[C@@]2(C)CC[C@@H](O)C[C@@H]12 [OBETICHOLIC ACID]"
  Growth Rate: 0.83
- compound: "Cc1c(-c2c(F)cc(C(N)=O)c3[nH]c4c(c23)CC[C@H](C(C)(C)O)C4)cccc1-n1c(=O)c2cccc(F)c2n(C)c1=O [BMS-986142]"
  Growth Rate: -0.99
- compound: "CCS(=O)(=O)c1ccc(OC)c(Nc2ncc(-c3cccc(F)c3)o2)c1 [GW621970X]"
  Growth Rate: -0.44

Now let's try a different one.
Which Growth Rate value is on record for `Nc1ncnc2c1c(COc1cccc(Cl)c1)nn2C1CCOCC1` ? 0.59
